experiment: Acumen qHTS Assay for Inhibitors of the mTORC1 Signaling Pathway in MEF (Tsc2-/-, p53-/-) Cells: Hit Validation; settings: Acumen imaging; at 37.3 µM (top of the series);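 note: phospho-rpS6 Ser235/236 immunofluorescence normalized to propidium iodide cell count; cells exposed to compound for 24 hours; plate controls were DMSO for no effect and 7.5 nM rapamycin control for full effect; nearly all actives have a fitted effect of over 65% in size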
Inconclusive results are not listed.
Below: a set of entries, each annotated with reported activity change, negative = inhibition.
Reported Metric: activity change, negative = inhibition (%)

>>> df
                                    molecule  display_unit  measured
 0  CC(C)c1nnc(NC(=O)c2nc(S(=O)(=O)Cc3ccccc3)ncc2Cl)s1             %     -86.2
 1  CCN1CCN(c2ccc(NS(=O)(=O)c3c(C)nc4sccn4c3=O)cc2Cl)CC1             %     -78.4
 2  CCc1ccc(NC(=O)C2CCCN(S(=O)(=O)c3cccc4cccnc34)C2)cc1 (stereo not given)             %     -7.11
 3  Cc1cc(NC(=O)c2ccco2)cc(-c2nc3cc(Cl)ccc3o2)c1O             %     -46.5
 4   CCc1nn(CC(=O)NCc2ccccc2Cl)c(=O)c2cccn12             %      3.65
 5  O=C(CS(=O)(=O)c1cccc2nsnc12)NCc1ccc(Cl)cc1             %      10.4
 6   COc1ccccc1NC(=O)c1sc(-c2ccc(Cl)cc2)cc1N             %       1.3
 7             Cc1cccc(-n2nnnc2S(C)(=O)=O)c1             %       -92
 8  CC(C)(C)C(=O)Nc1ccc(-c2nc3ccc(NC(=O)C(C)(C)C)cc3[nH]2)cc1             %     -3.72
 9  COc1cc(C)ccc1OCCn1c(-c2ccc(Cl)cc2)nc2ccccc2c1=O             %     -1.14
10  O=C(Nc1cccc(NC(=O)c2ccccc2Cl)c1)c1cccc(Br)c1             %     -1.41
11  CC1CCCN(CCCNC(=O)c2cc3c(Cl)nc4ccccc4c3s2)C1 (stereo not given)             %     -16.9
12  CCc1ccc(NC(=O)C2CCCN(S(=O)(=O)c3c(C)noc3/C=C/N(C)C)C2)cc1 (stereo not given)             %     -73.7
13  Cc1ccc(NC(=O)CCNS(=O)(=O)c2cccc3nonc23)cc1Cl             %      5.73
14  CCn1c(CC2C(=O)N(C)c3ccc(Br)cc32)nc2ccccc2c1=O (stereo not given)             %       -27
15  Cc1cccc(-c2nc3c(cnn3-c3ccccc3)c(=O)n2-c2ccc(Br)cc2)c1             %     -37.3
16  CC(C)(C)C1CCc2c(sc(NC(=O)C3c4ccccc4Oc4ccccc43)c2C(N)=O)C1 (stereo not given)             %     -15.3
17  Cc1ccc(C(=O)c2cn(CC(=O)NCc3ccccc3Cl)c3nc(C)ccc3c2=O)cc1             %     -14.2
18  CCOc1ccc(NC(=O)CN2C(=O)C(c3ccc(Cl)cc3)=NC2(C)C)cc1             %      17.5
19  Cc1nnc(C(=O)NC(C)(C)c2nc(C(=O)NCc3ccc(F)cc3)c(O)c(=O)n2C)o1             %     -4.28
20  CCCCN(C)C(=O)CSc1c2c(nc3ccc(Cl)cc13)CCCC2             %     -13.3
21  CCC(=O)C1=C(c2ccc(F)cc2)N(C(=O)CC)n2cnnc2S1             %     -29.5
22  CCc1ccccc1NC(=O)CSCc1cnn(-c2ccccc2)c1-n1cccc1             %      14.7
23     Cc1ccccc1NC(=O)c1sc2nc3c(cc2c1N)CCCC3             %     -21.3
24  Cc1ccc(S(=O)(=O)c2nc(-c3cccs3)oc2SCC(=O)Nc2cc(C)cc(C)c2)cc1             %      -132
25  O=C(CCCn1c(=O)c2ccccc2n(Cc2cccc(Cl)c2)c1=O)NCCc1ccc(Cl)cc1             %     -4.01
26  CCc1ccc(NC(=O)Cn2nc(C(F)(F)F)c3c2CCCC3)cc1             %       -28
27  Cc1ccc(NC(=O)c2nc(S(=O)(=O)Cc3cccc(C)c3)ncc2Cl)cc1             %      -108
28         Brc1ccc(Nc2c3c(nc4nncn24)CCC3)cc1             %      7.81
29  Cc1ccc(-n2ncc(C(=O)NCCCN3CCc4ccccc4C3)c2C2CCN(C(=O)OC(C)(C)C)CC2)c(C)c1             %     -11.4
30      COc1ccc(C(=O)c2sc(Nc3ccccc3)nc2N)cc1             %     -4.73
31  CCOc1ccccc1NC(=O)c1cn(C2CCCC2)c(=O)c2c1c1ccccc1n2C             %     -10.9
32  CCCCOC(=O)c1ccc(NC(=O)c2ccc3c(c2)CCN3S(=O)(=O)c2ccccc2)cc1             %     -14.2
33  COc1ccc(S(=O)(=O)N(CCc2ccccc2)CC(=O)Nc2cccc(OC)c2)cc1             %     -19.2
34  CCOC(=O)N1CCN(Cc2nc3cc(NC(=O)c4ccccc4OC)ccc3n2C(C)C)CC1             %     -28.8
